The following compounds are shown together with reported Population Mitochondria Different-Phenotype (%) values.
tested on: Fibroblast; experiment: Multiplex assay against human fibroblast; format: toxicity, cell-based; settings: 24 h, 1 µM, compound concentration 1 uM
I only need the number, in %, no unit after it.

Previously resolved entries follow.
N#Cc1cc(F)cc(-c2nc(-c3ccc(F)cn3)no2)c1; 3
COc1c(C)cc(NC(=O)c2nn(Cc3ccc(F)cc3)c3c2CN(C(=O)c2ccc[nH]2)C[C@]3(C)C(N)=O)cc1C; 17
CC(C)(C)c1ccc(S(=O)(=O)Nc2ccc(Cl)cc2C(=O)c2cc[n+]([O-])cc2)cc1; 1

Population Mitochondria Different-Phenotype (%) lookup needed for COCCn1c(C)c(C)s/c1=N\C(=O)C1C(C)(C)C1(C)C , thanks.
5

Population Mitochondria Different-Phenotype (%) lookup needed for O=S(=O)(c1ccccc1)c1cnc2c(N3CCNCC3)cccc2c1 [INTEPIRDINE] , thanks.
4

----------
system: HEK-293T; assay: Multiplex assay against HEK293T; format: toxicity, cell-based; conditions: human, 24 h, 10 µM, compound concentration 10 uM
Property measured: Population Hoechst High Intensity Objects (%)
I only need the number, in %, no unit after it.

O=c1cccc2n1C[C@@H]1CNC[C@H]2C1; 0

Population Hoechst High Intensity Objects (%) lookup needed for Cl.NCCc1ccc(O)c(O)c1 [DOPAMINE HYDROCHLORIDE] , thanks.
5

Population Hoechst High Intensity Objects (%) lookup needed for O=C1N=C(NCc2cccs2)S/C1=C\c1ccc2ncccc2c1 , thanks.
0

Population Hoechst High Intensity Objects (%) lookup needed for N[C@](CC1c2ccccc2Oc2ccccc21)(C(=O)O)[C@H]1C[C@@H]1C(=O)O , thanks.
5

Population Hoechst High Intensity Objects (%) lookup needed for O=C(Nc1ccccc1Cl)c1cnc2ccc(C3CCNCC3)cn12.O=C(O)C(=O)O , thanks.
0

Population Hoechst High Intensity Objects (%) lookup needed for CC/C(=C(\c1ccc(O)cc1)c1ccc(OCCN(C)C)cc1)c1ccccc1 , thanks.
0

Population Hoechst High Intensity Objects (%) lookup needed for C=C(C)[C@H]1CN[C@H](C(=O)O)[C@H]1CC(=O)O , thanks.
0

Population Hoechst High Intensity Objects (%) lookup needed for CC(C)c1ccc(/C=N/NC(=O)c2ccc(O)cc2)cc1 , thanks.
0

Population Hoechst High Intensity Objects (%) lookup needed for S=c1[nH]nc(-c2cccs2)n1-c1ccccc1 , thanks.
0

Population Hoechst High Intensity Objects (%) lookup needed for CCN1CCN(Cc2ccc(Nc3ncc(F)c(-c4cc(F)c5nc(C)n(C(C)C)c5c4)n3)nc2)CC1.CS(=O)(=O)O , thanks.
0

----------
The following compounds are shown together with reported Population Hoechst High Intensity Objects (%) values.
tested on: HEK-293T; test: Multiplex assay against HEK293T; type: toxicity, cell-based; details: human, 12 h, 1 µM, compound concentration 1 uM
I only need the number, in %, no unit after it.

Previously resolved entries follow.
CC(C)(C)c1ccc(S(=O)(=O)Nc2ccc(Cl)cc2C(=O)c2cc[n+]([O-])cc2)cc1 [VERCIRNON]; 7
COc1cc2ncnc(Nc3ccc(Oc4ccccc4)cc3C)c2cc1OC.Cl; 0
C[C@@H]1CC(=O)Nc2cccc(-c3ccc4c(c3)c(-c3cnn(C)c3)nn4C)c2N1; 7
CCCCCCNC(=O)Nc1ccc(S(=O)(=O)Nc2ccc(CCNC[C@H](O)COc3ccc(O)cc3)cc2)cc1 [L-755507]; 7
O=C1N=C(NCc2cccs2)S/C1=C\c1ccc2ncccc2c1; 0
C=C(C)[C@H]1CN[C@H](C(=O)O)[C@H]1CC(=O)O [KAINIC ACID]; 0

Population Hoechst High Intensity Objects (%) lookup needed for Cl.Cl.N#Cc1ccc(O[C@@H]2c3ccccc3C[C@H]2N2CCC[C@@H](N)C2)c(Cl)c1 , thanks.
0

Population Hoechst High Intensity Objects (%) lookup needed for CC[C@H](Nc1ncnc2[nH]cnc12)c1nc2cccc(F)c2c(=O)n1-c1ccccc1 [IDELALISIB] , thanks.
0

Population Hoechst High Intensity Objects (%) lookup needed for c1ccc2nc(N3CCNCC3)ccc2c1 [QUIPAZINE] , thanks.
0
